All values here come from paper PMC11098746.

- experimental.target: Circumsporozoite protein (CSP) (Plasmodium falciparum (isolate 3D7), UniProt Q7K740)
- Sequence (Q7K740 19-374): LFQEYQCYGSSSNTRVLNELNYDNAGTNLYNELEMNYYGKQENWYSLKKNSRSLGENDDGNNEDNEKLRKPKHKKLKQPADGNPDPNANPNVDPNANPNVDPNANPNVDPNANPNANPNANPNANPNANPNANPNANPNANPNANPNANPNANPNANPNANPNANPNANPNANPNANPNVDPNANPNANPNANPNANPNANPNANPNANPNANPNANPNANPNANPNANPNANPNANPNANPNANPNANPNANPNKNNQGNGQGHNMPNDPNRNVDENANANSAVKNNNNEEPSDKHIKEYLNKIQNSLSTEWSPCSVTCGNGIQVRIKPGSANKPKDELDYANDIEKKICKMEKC
- procedure.details: AVEXIS screen signal:noise (double-corrected)
No end group written: not given here.
Could you please report measured binding score for the items listed next?
Give bare numbers.

Here are 5 binders together with their reported answers.
{"binder": "ADP362 (protein, bait human Fc-tagged dimer) MARAALWLWLCALALSLQPALPQIVATNLPPEDQDGSGDDSDNFSGSGAGALQDITLSQQTPSTWKDTQLLTAIPTSPEPTGLEATAASTSTLPAGEGPKEGEAVVLPEVEPGLTAREQEATPRPRETTQLPTTHLASTTTATTAQEPATSHPHRDMQPGHHETSTPAGPSQADLHTPHTEDGGPSATERAAEDGASSQLPAAEGSGEQDFTFETSGENTAVVAVEPDRRNQSPVDQGATGASQGLLDRKEVLG", "numeric.value": 0.594}
{"binder": "MAIHKALVMCLGLPLFLFPGAWAQGHVPPGCSQGLNPLYYNLCDRSGAWG (cysteine pairing not given here; also: human Fc-tagged dimer) [ADP328]", "numeric.value": 1.01}
{"binder": "ADP278 (protein, bait human Fc-tagged dimer) IQAKLIFLNFVRVPYFIDLKKPQDQGLNHTCNYYLQPEEDVTIGVWHTVPAVWWKNAQGKDQMWYEDALASSHPIILYLHGNAGTRGGDHRVELYKVLSSLGYHVVTFDYRGWGDSVGTPSERGMTYDALHVFDWIKARSGDNPVYIWGHSLGTGVATNLVRRLCERETPPDALILESPFTNIREEAKSHPFSVIYRYFPGFDWFFLDPITSSGIKFANDENVKHISCPLLILHAEDDPVVPFQLGRKLYSIAAPARSFRDFKVQFVPFHSDLGYRHKYIYKSPELPRILREFLGKSEPEHQH", "numeric.value": 0.76}
{"binder": "ADP138 (protein, bait human Fc-tagged dimer) MAGKSSTRAVLLLLGIQLTALWPIAAVEIYTSRVLEAVNGTDARLKCTFSSFAPVGDALTVTWNFRPLDGGPEQFVFYYHIDPFQPMSGRFKDRVSWDGNPERYDASILLWKLQFDDNGTYTCQVKNPPDVDGVIGEIRLSVVHTVRFS", "numeric.value": 0.831}
{"binder": "ADP296 (protein, bait human Fc-tagged dimer) MARERGALSRASRALRLAPFVYLLLIQTDPLEGVNITSPVRLIHGTVGKSALLSVQYSSTSSDRPVVKWQLKRDKPVTVVQSIGTEVIGTLRPDYRDRIRLFENGSLLLSDLQLADEGTYEVEISITDDTFTGEKTINLTVDVPISRPQVLVASTTVLELSEAFTLNCSHENGTKPSYTWLKDGKPLLNDSRMLLSPDQKVLTITRVLMEDDDLYSCMVENPISQGRSLPVKITVYRRSS", "numeric.value": 0.997}

For each listed entry, give its binding score.
1. ADP355 (protein, bait human Fc-tagged dimer) MALLLLHPAFQSCLLLTLLGLWRTTPEAHASSLGAPAISAASFLQDLIHRYGEGDSLTLQQLKALLNHLDVGVGRGNVTQHVQGHRNLSTCFSSGDLFTAHNFSEQSRIGSSELQEFCPTILQQLDSRACTSENQENEENEQTEEGRPSAVEVWGYG
2. ADP368 (protein, bait human Fc-tagged dimer) MERASCLLLLLLPLVHVSATTPEPCELDDEDFRCVCNFSEPQPDWSEAFQCVSAVEVEIHAGGLNLEPFLKRVDADADPRQYADTVKALRVRRLTVGAAQVPAQLLVGALRVLAYSRLKELTLEDLKITGTMPPLPLEATGLALSSLRLRNVSWATGRSWLAELQQWLKPGLKVLSIAQAHSPAFSCEQVRAFPALTSLDLSDNPGLGERGLMAALCPHKFPAIQNLALRNTGMETPTGVCAALAAAGVQPHSLDLSHNSLRATVNPSAPRCMWSSALNSLNLSFAGLEQVPKGLPAKLRVLDLSCNRLNRAPQPDELPEVDNLTLDGNPFLVPGTALPHEGSMN
3. ADP333 (protein, bait human Fc-tagged dimer) MASVVLPSGSQCAAAAAAAAPPGLRLRLLLLLFSAAALIPTGDGQNLFTKDVTVIEGEVATISCQVNKSDDSVIQLLNPNRQTIYFRDFRPLKDSRFQLLNFSSSELKVSLTNVSISDEGRYFCQLYTDPPQESYTTITVLVPPRNLMIDIQKDTAVEGEEIEVNCTAMASKPATTIRWFKGNTELKGKSEVEEWSDMYTVTSQLMLKVHKEDDGVPVICQVEHPAVTGNLQTQRYLEVQYKPQVHIQMTYPLQGLTREGDALELTCEAIGKPQPVMVTWVRVDDEMPQHAVLSGPNLFINNLNKTDNGTYRCEASNIVGKAHSDYMLYVYDPPTTIPPPTT
4. ADP115 (protein, bait human Fc-tagged dimer) MARPGQRWLGKWLVAMVVWALCRLATPLAKNLEPVSWSSLNPKFLSGKGLVIYPKIGDKLDIICPRAEAGRPYEYYKLYLVRPEQAAACSTVLDPNVLVTCNRPEQEIRFTIKFQEFSPNYMGLEFKKHHDYYITSTSNGSLEGLENREGGVCRTRTMKIIMKVGQDPNAVTPEQLTTSRPSKEADNTVKMATQAPGSRGSLGDSDGKHETVNQEEKSGPGASGGSSGDPDGFFNSKVAL
5. ADP371 (protein, bait human Fc-tagged dimer) MRRAWILLTLGLVACVSAESRAELTSDKDMYLDNSSIEEASGVYPIDDDDYASASGSGADEDVESPELTTSRPLPKILLTSAAPKVETTTLNIQNKIPAQTKSPEETDKEKVHLSDSERKMDPAEEDTNVYTEKHSDSLFKRTE

Result block:
1. 0.935
2. 1.29
3. 1.11
4. 1.09
5. 1.57
